Listed here are molecules together with their documented selectivity ratio.
ASSAY_DETAILS: Selectivity index, ratio of CC50 for rat L6 cells to EC50 for Trypanosoma brucei 221 bloodstream form
Type: toxicity
EXPERIMENTAL_SETUP: read-out: Ratio CC50/EC50

MOLECULE: O=C(CN1C(=O)NC2(CCCCc3ccccc32)C1=O)NO (centres undefined)
selectivity ratio: 313
--
MOLECULE: O=C(CN1C(=O)NC2(CCc3ccccc32)C1=O)NO (centres undefined)
selectivity ratio: 609
--
MOLECULE: CN1C(=O)N(CC(=O)NO)C(=O)C12CCCCc1ccccc12 (centres undefined)
selectivity ratio: 71
--
MOLECULE: CN1C(=O)N(CC(=O)NO)C(=O)C12CCc1ccccc12 (centres undefined)
selectivity ratio: 451
